# Experiment: Oral plasma exposure in SCID mouse at 5 mg/kg, po measured after 1 hr
# Type: ADME, organism-based
# Settings: SCID, plasma
Is concentration at 1 h at least 200 ng/mL? Then true. If not, false.

CC(=O)N1CCc2c(c(N3CCCc4cc(-c5cnn(C)c5)c(C(F)F)cc43)nn2C2CCN(CC3CN(c4ccc5c(c4)C(=O)N(C4CCC(=O)NC4=O)C5=O)C3)CC2)C1 (stereo not drawn): false
CC(=O)N1CCc2c(c(N3CCCc4cc(-c5cnn(C)c5)c(C(F)F)cc43)nn2C2CCN(C3CC4(C3)CN(c3ccc5c(c3)C(=O)N(C3CCC(=O)NC3=O)C5=O)C4)CC2)C1 (stereo not drawn): false
CC(=O)N1CCc2c(c(N3CCCc4cc(-c5cnn(C)c5)c(C(F)F)cc43)nn2C2CCN(C(=O)CCNc3ccc4c(c3)C(=O)N(C3CCC(=O)NC3=O)C4=O)CC2)C1 (stereo not drawn): false
CC(=O)N1CCc2c(c(N3CCCc4cc(-c5cnn(C)c5)c(C(F)F)cc43)nn2C2CCN(C(=O)CNc3ccc4c(c3)C(=O)N(C3CCC(=O)NC3=O)C4=O)CC2)C1 (stereo not drawn): false
CC(=O)N1CCc2c(c(N3CCCc4cc(-c5cnn(C)c5)c(C(F)F)cc43)nn2C2CCN(C(=O)CCCCNc3cccc4c3C(=O)N(C3CCC(=O)NC3=O)C4=O)CC2)C1 (stereo not drawn): false
CC(=O)N1CCc2c(c(N3CCCc4cc(-c5cnn(C)c5)c(C(F)F)cc43)nn2C2CCN(C3CN(c4ccc5c(c4)C(=O)N(C4CCC(=O)NC4=O)C5=O)C3)CC2)C1 (stereo not drawn): true
CC(=O)N1CCc2c(c(N3CCCc4cc(-c5cnn(C)c5)c(C(F)F)cc43)nn2C2CCN(C3CCN(c4ccc5c(c4)C(=O)N(C4CCC(=O)NC4=O)C5=O)CC3)CC2)C1 (stereo not drawn): false

Could you please find out whether CC(=O)N1CCc2c(c(N3CCCc4cc(-c5cnn(C)c5)c(C(F)F)cc43)nn2C2CCN(C3CC4(CCN(c5ccc6c(c5)C(=O)N(C5CCC(=O)NC5=O)C6=O)CC4)C3)CC2)C1 (stereo not drawn) has concentration at 1 h that meets 200 ng/mL or exceeds it?
true

Hello, the source for this data is ChEMBL document CHEMBL5518240, in case you need it.
